systemUnderTest: DR2a (DRB5*01:01) (Homo sapiens, UniProt P01903+Q30154)
assayInfo: fluorescence polarization competition binding assay, DR2a
cond: fluorescence polarization competition; […]; mean of two independent experiments; read-out: Mean IC50, DR2a (DRB5*01:01)
assayEndpoint: IC50 (µM)
Respond numerically; units are µM and should not be typed.

CC[C@H](C)[C@H](NC(=O)[C@@H](NC(=O)CNC(=O)[C@H](CC(N)=O)NC(=O)[C@H](CCC(=O)O)NC(=O)[C@H](CC(N)=O)NC(=O)[C@H](Cc1ccc(O)cc1)NC(=O)[C@H](CCCCN)NC(=O)[C@H](CC(C)C)NC(=O)[C@@H](N)CC(C)C)[C@@H](C)O)C(=O)N[C@H](C(=O)N[C@@H](CC(=O)O)C(=O)N[C@@H](C)C(=O)N[C@H](C(=O)N[C@@H](CC(=O)O)C(=O)N[C@@H](CS)C(=O)O)C(C)C)[C@@H](C)O [S#56 (CoV2)] has a reported IC50 of 41.1
